# measured target: HIV-1 reverse transcriptase (HIV-1, UniProt P04585;P04585 P04585:588-1147,P04585:588-1027)
# assay details: inhibition; Ki' for RNA-dependent DNA polymerase activity
# details: tags: overexpressed in E. coli, purified per Davies et al. 1991; label: 5'-32P; internal loop AA opposite AG
experimental endpoint: pKi
pKi is a log-scale quantity: -log10 of the concentration expressed in molar.

Find the measured pKi of RT4 (ssDNA) DNA: ATCCGCCTGATTAGCGATACTTTAGCAAAGTTGAAGCCGGACTAACAAGCTCTACGACTTGAGCAAAATCACCTGCAGGGG and report it.
8.39
